Target: GSK3B (Homo sapiens (Human), UniProt P49841)
Sequence (P49841 whole entry): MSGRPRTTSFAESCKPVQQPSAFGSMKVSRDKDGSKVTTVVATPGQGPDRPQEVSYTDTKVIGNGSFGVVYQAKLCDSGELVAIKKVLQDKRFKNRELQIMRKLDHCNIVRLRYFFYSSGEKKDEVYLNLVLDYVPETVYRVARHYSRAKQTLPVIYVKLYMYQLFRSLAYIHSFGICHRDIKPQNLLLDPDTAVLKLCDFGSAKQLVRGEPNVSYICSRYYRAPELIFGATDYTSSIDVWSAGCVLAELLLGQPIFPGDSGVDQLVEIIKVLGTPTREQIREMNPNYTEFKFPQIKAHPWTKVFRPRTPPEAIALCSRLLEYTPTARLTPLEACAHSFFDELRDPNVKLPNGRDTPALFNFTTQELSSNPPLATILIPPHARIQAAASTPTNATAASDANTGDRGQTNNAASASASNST
Experiment: KiNativ assay
Assay type: binding
Conditions: H929 live cell, read-out: inhibition (10 μM)
Reported inhibition at 10 µM values are given for each entry in this list.

COMPOUND | VALUE_UNIT | inhibition at 10 µM
Nc1ncc(-c2cccc3ncsc23)cc1-c1ccc2c(c1)CCNC2=O [Compound I-13] | % | 88.4
COc1cc(NS(=O)(=O)C2CC2)ccc1-c1cnc(N)c(-c2ccc3c(c2)CCNC3=O)c1 [Compound I-50] | % | 81.1
Nc1ncc(-c2cccc([N+](=O)[O-])c2F)cc1-c1ccc2c(c1)CCNC2=O [Compound I-9] | % | 97.2
CN(C1CC1)S(=O)(=O)c1ccc(-c2cnc(N)c(-c3ccc4c(c3)CCNC4=O)c2)c(F)c1 [Compound I-28] | % | 96.4
Nc1ncc(-c2ccc(NS(=O)(=O)C3CC3)cc2OC2CCCCC2)cc1-c1ccc2c(c1)CCNC2=O [Compound I-65] | % | 90
Nc1ncc(-c2ccc(NS(=O)(=O)C3CC3)cc2F)cc1-c1ccc2c(c1)CCNC2=O [Compound I-51] | % | 90.2
